tested on: HSV-1 DJL-M1 (V823A); assay: Plaque reduction assay, 4-oxo-DHQ resistant HSV-1 DJL-M1; assay type: cell-based; details: Table 2, mutant V823A

molecule | IC50
Cn1cc(C(=O)NCc2ccc(Cl)cc2)c(=O)c2cc(/C=C\CO)cc(F)c21 | > 20 µM

----------
test system: HCMV AD169; assay: Plaque reduction assay, HCMV AD169; format: cell-based; conditions: Human betaherpesvirus 5, AD169; Table 4, plaque reduction, wild type; read-out: HCMV AD169 IC50
Listed below: IC50 values for each entry.

compound | system | IC50 [nM]
Nc1nc(O)c2ncn(COC(CO)CO)c2n1 [Ganciclovir, reference compound] | HCMV AD169 | 900
Nc1ccn(C[C@@H](CO)OCP(=O)(O)O)c(=O)n1 [Cidofovir, reference compound] | HCMV AD169 | 300
